Molecular target: human PLCβ3 (hPLCβ3) (Homo sapiens, UniProt Q01970)
Construct: confirmed alkylation at up to eight cysteine residues on the full length protein; gift: laboratory of Dr. T. K. Harden, University of North Carolina
Sequence (Q01970 whole entry): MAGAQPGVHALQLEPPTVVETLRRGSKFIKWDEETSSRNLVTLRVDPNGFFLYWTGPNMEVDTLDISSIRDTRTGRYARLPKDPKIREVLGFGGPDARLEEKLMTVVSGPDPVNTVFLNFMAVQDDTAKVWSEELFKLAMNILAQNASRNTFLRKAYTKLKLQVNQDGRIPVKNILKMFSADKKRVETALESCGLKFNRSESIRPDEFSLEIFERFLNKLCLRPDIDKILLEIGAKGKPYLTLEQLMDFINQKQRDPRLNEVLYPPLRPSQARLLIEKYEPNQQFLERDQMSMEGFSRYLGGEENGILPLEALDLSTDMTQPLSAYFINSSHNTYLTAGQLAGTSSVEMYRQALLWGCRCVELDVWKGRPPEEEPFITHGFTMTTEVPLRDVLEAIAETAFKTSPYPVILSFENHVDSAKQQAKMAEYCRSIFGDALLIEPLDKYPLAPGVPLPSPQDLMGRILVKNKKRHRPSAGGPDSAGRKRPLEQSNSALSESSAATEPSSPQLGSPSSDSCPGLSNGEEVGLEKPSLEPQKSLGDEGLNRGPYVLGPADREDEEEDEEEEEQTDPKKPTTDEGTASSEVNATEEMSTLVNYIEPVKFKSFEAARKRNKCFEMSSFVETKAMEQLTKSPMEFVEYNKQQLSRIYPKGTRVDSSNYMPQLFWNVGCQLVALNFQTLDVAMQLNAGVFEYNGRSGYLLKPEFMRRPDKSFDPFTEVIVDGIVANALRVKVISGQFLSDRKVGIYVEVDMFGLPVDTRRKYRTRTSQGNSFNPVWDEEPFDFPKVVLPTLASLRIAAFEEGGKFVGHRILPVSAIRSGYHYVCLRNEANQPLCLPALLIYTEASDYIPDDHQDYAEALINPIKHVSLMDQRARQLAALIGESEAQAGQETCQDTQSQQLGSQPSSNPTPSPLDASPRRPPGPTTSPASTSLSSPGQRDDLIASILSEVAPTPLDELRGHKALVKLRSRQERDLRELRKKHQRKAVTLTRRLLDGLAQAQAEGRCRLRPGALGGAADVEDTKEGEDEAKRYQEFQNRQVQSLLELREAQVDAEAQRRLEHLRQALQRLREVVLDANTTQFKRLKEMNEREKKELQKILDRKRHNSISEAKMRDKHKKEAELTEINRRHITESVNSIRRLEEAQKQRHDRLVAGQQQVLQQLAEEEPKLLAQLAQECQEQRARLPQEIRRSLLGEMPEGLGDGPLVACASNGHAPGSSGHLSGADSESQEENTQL
Test: PLCβ3 activity by cell free assay ([3H]-inositol phosphate formation from PIP2 in dodecylmaltoside mixed micelles)
Method: Purified human PLCβ3 protein was generously provided by the laboratory of Dr. T. K. Harden (Department of Pharmacology, University of North Carolina, Chapel Hill, N.C., United States of America). […] The amount of formed [^3H]-inositol phosphates was measured by liquid scintillation counting of 500 μl of the upper phase in a Packard Tri Carb 4000 Series […]. Data are expressed as mean±SD of three experiments performed in triplicate unless otherwise indicated. […]
Quantity name: pEC50
Conceptually, pEC50 converts a concentration in mol/L into minus its log10.

Incoming: Short answer please: pEC50, human PLCβ3 (hPLCβ3) (Homo sapiens, UniProt Q01970), entry COc1ccc2c(c1)CC[C@@H]1[C@@H]2CC[C@]2(C)[C@@H](NCCCCCCN3C(=O)C=CC3=O)CC[C@@H]12
Outgoing: 4.85
